Data origin, for the record: ChEMBL document CHEMBL1142942

System: Bacillus subtilis
Test name: Antibacterial activity against Bacillus subtilis at 5 ug/disk after 24 hrs by agar-plate diffusion assay
Format: functional
Condition description: read-out: IZ
Known zone of inhibition at 5 µg/disc of a selection of compounds
The reply should contain only the number, in mm.

Line notation: COc1ccc(Br)cc1Oc1c(Br)c(Br)cc(Br)c1OC
zone of inhibition at 5 µg/disc [mm]: 0

Line notation: Oc1c(Br)cccc1Oc1cc(Br)c(Br)c(Br)c1O
zone of inhibition at 5 µg/disc [mm]: 8

Line notation: Brc1cc(Br)c2c(c1)Oc1c(Br)c(Br)c(Br)c(Br)c1O2
zone of inhibition at 5 µg/disc [mm]: 13

# next compound below
Challenge: Recorded zone of inhibition at 5 µg/disc for `COc1cc(Br)c(Br)c(Br)c1Oc1cc(Br)cc(Br)c1O` , please?
Response given: 0
